system: Bovine viral diarrhea (BVD) virus; assay: Anti-BVDV CPE inhibition assay in MDBK cells; settings: Bovine viral diarrhea virus isolates and strains, MDBK, in Bos taurus, 96 h
The following compounds are shown together with reported EC50 values.
Write the number in µM without appending the unit.

1. Fc1ccc(OC(F)(F)F)cc1-c1cc2cn(Cn3nnc4ccccc43)ccc-2n1
0.076
2. Fc1ccc(OC(F)(F)F)cc1-c1cc2ccn(Cn3nnc4ccccc43)cc-2n1
0.023
3. Fc1ccccc1-c1cc2ccn(Cn3nnc4ccccc43)cc-2n1
0.009

Checklist item: EC50 tested on Bovine viral diarrhea (BVD) virus, entry COc1ncccc1-c1cc2cn(Cn3nnc4ccccc43)ccc-2n1 , value?
0.082

Checklist item: EC50 tested on Bovine viral diarrhea (BVD) virus, entry Cc1ccc2nc(Cn3ccc4cc(-c5cnn(C)c5C)nc-4c3)sc2c1 , value?
0.016

Checklist item: EC50 tested on Bovine viral diarrhea (BVD) virus, entry N#Cc1ccc(-c2cc3cn(Cn4nnc5ccccc54)ccc-3n2)cc1 , value?
0.007

Checklist item: EC50 tested on Bovine viral diarrhea (BVD) virus, entry Fc1ccccc1-c1nc2ccn(Cc3ncc(-c4ccccc4)s3)cc-2n1 , value?
0.082

Checklist item: EC50 tested on Bovine viral diarrhea (BVD) virus, entry Cc1ccc2nc(Cn3ccc4cc(-c5ccccc5CO)nc-4c3)sc2c1 , value?
0.009
